Test: MTT assay on a human fibroblast cell line
Format: cell-based
Details: human, MRC-5, MTT, read-out: IC50 (cytotoxic effect on MRC-5 cells)
MEASUREMENT TYPE: IC50 at 48 h (µg/mL)
Dear colleague, please return just the value in µg/mL, with no unit written.

INPUT: Would you kindly share the measured IC50 at 48 h for c1cc(CCc2ccncc2)ccn1 ?
OUTPUT: 300

###

Assay: MTT assay on a human fibroblast cell line
Assay type: cell-based
Settings: human, MRC-5 human lung fibroblast cells, MRC-5, MTT, read-out: IC50 (cytotoxic effect on MRC-5 cells)
MEASUREMENT TYPE: IC50 at 48 h (µg/mL)
Quick reminder: number only, in µg/mL, skip the unit.

INPUT: Look up IC50 at 48 h for this compound: C(=Cc1ccncc1)c1ccncc1 [bpe, 1,2-bis(4-pyridyl)ethene, reference compound]
OUTPUT: 220
